These data points were gathered from paper PMC4984800.

- method description: First-in-human trial: pharmacokinetics in plasma and urine
- Assay type: in vivo
- run conditions: human, plasma, oral, 20 mg, Schedule 2, 20 mg, N=3; median (range)
measurement kind: AUC(0-inf)

Short answer for COc1cccc2cc(-c3nc([C@H]4CC[C@H](C(=O)O)CC4)n4ncnc(N)c34)[nH]c12 : AUC(0-inf) was 9840 ng·h/mL

---

- method description: First-in-human trial: pharmacokinetics in plasma and urine
- Type: in vivo
- run conditions: human, plasma, oral, 10 mg, Schedule 2, 10 mg, N=4; median (range); read-out: T1/2 (converted)
measurement kind: half-life
Answers without a unit are incomplete; give the number and then its unit.

COc1cccc2cc(-c3nc([C@H]4CC[C@H](C(=O)O)CC4)n4ncnc(N)c34)[nH]c12 [OSI-027] yielded half-life of 12.3 h
